- System: UACC-257 melanoma
- measurement notes: NCI-60 one-dose screen, 48 h (100 = growth as untreated, 0 = no growth, -100 = all killed)
- condition set: 10 µM unless noted
This is part of a sample that, as a whole, favours compounds with a hit. Of some 83,000 tested, about 20% had one in any assay.
recorded metric: growth (%)
Numbers only, in %.

Field: example entries. Status: answers known.
Cn1c(/C=C(\C#N)c2cccc(C(F)(F)F)c2)nc2c(N3CCOCC3)nc(Cl)nc21 ... -64.5
O=C(Nc1ccc(N2CCNCC2)cn1)c1[nH]ncc1Nc1ncnc2sccc12 ... 69.8
CCOC(=O)c1ccc2[nH]c(-c3ccccc3)cc(=O)c2c1 ... 98.7
O=C(CCN1C(=O)c2ccccc2C1=O)Nc1ccc(Cl)cc1 ... 98.2
O=C(Nc1ccc(F)cc1F)c1cc(Cl)ccc1O ... -11
Cn1cc([C@@H]2Nc3ccc4[nH]ncc4c3[C@H]3[C@H]4CCC(C4)[C@H]32)c(C(F)(F)F)n1 ... 50.1

Could you tell me growth for each of these compounds? They are listed below.
1. COCCN(C(=O)Cc1cccs1)C(C(=O)NCc1ccc(OC)cc1)c1ccc(C(C)C)cc1 (configuration not stated)
2. CCCC(c1nnnn1C1CCCCC1)N1CCN(C(=O)c2ccco2)CC1 (configuration not stated)
3. COc1cc(C2C3=C(COC3=O)N(CCO)c3cc4c(cc32)CCC4)cc(OC)c1O (configuration not stated)

**Result**
[122, 82.5, 36.2]

Could you tell me growth for each of these compounds? They are listed below.
1. COc1cc(C2C(C#N)=C(N)OC3=C2C(=O)c2ccccc2C3=O)cc(OC)c1O (configuration not stated)
2. CCCCCCCCCCOC(=O)c1ccccc1C(=O)OCCCC
3. CCC1=C[C@@H]2CN(C1)Cc1c([nH]c3ccccc13)[C@@](C(=O)OC)(c1cc3c(cc1OC)N(C)[C@H]1[C@@](O)(C(=O)OC)[C@H](OC(C)=O)[C@]4(CC)[C@@H]5C[C@@H]5CN5CC[C@]31[C@@H]54)C2
4. COc1ccc(/C=C2\N=C(c3ccccc3)N(c3ccc(-c4nc5ccc(C)cc5s4)cc3)C2=O)cc1
5. C#CCn1cc(C=C2C(=O)N(C)C(=O)N(C)C2=O)c2cc(Cl)ccc21

**Result**
[55.9, 111, 32.8, 111, 112]

Could you tell me growth for each of these compounds? They are listed below.
1. COc1cccc(C2=NN3C(C2)c2ccccc2OC3c2ccc(/C=C3\SC(=O)NC3=O)cc2)c1 (configuration not stated)
2. CCN(CCO)CCNc1ccc(C)c2sc3cc(Cl)ccc3c(=O)c12
3. Clc1ccc(Nc2scc3[n+]2CCC3)cc1

**Result**
106
-49.8
94

Could you tell me growth for each of these compounds? They are listed below.
1. COc1ccc(-c2nnc(COc3ccc(C(=O)/C=C/c4ccco4)cc3)o2)cc1
2. COC(=O)C1(C)COP(=O)(Nc2ccc(OC)cc2)OC1 (configuration not stated)
3. Cc1ccc(C2CC(c3ccc(Nc4nc(NCCO)nc(Nc5ccc(Cl)cc5)n4)cc3)=NN2c2cc(Cl)cc(Cl)c2)cc1 (configuration not stated)
4. CCn1c(Cc2ccccc2Nc2c(Cl)cccc2Cl)nnc1SCC(=O)NN1C(=O)/C(=C/c2cccc(OC)c2OC)SC1=S
5. O=Cc1c(OCc2cnnn2CC(=O)Nc2ccc(Cl)cc2)ccc2ccccc12
6. COC(=O)[C@H]1CCCN1C(=O)[C@H]1CCCN1C(=O)[C@H](Cc1c[nH]c2ccccc12)NC(=S)Nc1cc(C(F)(F)F)cc(C(F)(F)F)c1

**Result**
[105, 98.7, 101, 101, 94.6, 67.9]

Could you tell me growth for each of these compounds? They are listed below.
1. COc1ccc(CCN2C(=O)CCSC2=S)cc1OC
2. CC(=O)n1cc(-c2c[nH]c3ccccc23)c(-c2ccc(Cl)cc2)n1
3. CC(=O)c1ccc(Cc2ccc(C(C)=O)s2)s1
4. COC(=O)C1(C)CCC[C@]2(C)[C@H]3C[C@H]4C(C(C)C)=C[C@]3(CC[C@@H]12)[C@H]1[C@@H]4[C@@H](OCC#CCN2CCOCC2)CC[C@@H]1OCC#CCN1CCOCC1 (some centres not stated)

**Result**
[96.6, 103, 111, 83.8]

* * *

- Test system: NCI-H522 lung
- measurement notes: NCI-60 one-dose screen, 48 h
- condition set: 10 µM unless noted
Compounds without any hit were thinned out: in the full panel of roughly 83,000, 20% have a hit. Activity calls are given as the source filed them. How the source made its calls: active means growth percent below 10; inactive means the rest.
Respond using exactly one of the listed classes: class 1 (active), class 0 (inactive)

Study these solved cases before continuing.
O=C(Nc1ccc(-c2nc3ccc(NC(=O)c4ccc(Cl)cc4)cc3[nH]2)cc1)c1ccc(Cl)cc1 ... class 1
CN1C(=O)N(C)C2C1NN=c1s/c(=C\c3c[nH]c4ccccc34)c(=O)n12 (stereo not drawn) ... class 0

**Query** How was COc1ccc(/C=C2\NC(=O)NC2=O)cc1O classified in this test?
**Result** class 0

* * *

- Tested on: HOP-92 NSCLC
- measurement notes: NCI-60 one-dose screen, 48 h
- condition set: 10 µM unless noted
- Method: Growth inhibition of the HOP-92 human Non-Small Cell Lung tumor cell line is measured as a screen for anti-cancer activity. Cells are grown in 96 well plates and exposed to the test compound for 48 hours. Compounds are tested at a single concentration, which is 10^-5 M for most compounds. The reported endpoint is percent growth (GI% or GIPRCNT), where numbers from 0 - 100% represent growth inhibition, and numbers from -100% - 0 represent cell death. […]
The panel holds about 83,000 compounds, 20% with a hit somewhere; the sample as a whole holds those more often. Activity calls are given as the source filed them. How the source made its calls: active means growth percent below 10; inactive means the rest.
Respond using exactly one of the listed classes: active, inactive

Study these solved cases before continuing.
CCOC(=O)c1cnc2ccc(Cl)cc2c1NCCCN(C)C ... inactive
O=c1oc2ccc(Br)cc2c(=O)n1-c1ccc(Cl)cc1F ... active
CC[C@@H](C)[C@H](NC(=O)Cn1cc(CNC(=O)[C@@H](NC(=O)OCc2ccccc2)C(C)C)nn1)C(=O)O ... inactive

**Query** How was COc1ccc(/C=C/C(=O)c2c(C)nc3ccccc3c2/C=C/c2ccccc2)c(OC)c1 classified in this test?
**Result** inactive

**Query** How was O=c1oc2ccc(F)cc2c(=O)n1-c1ccc(Br)cc1F classified in this test?
**Result** active

**Query** How was O=C(Cn1cc(COc2ncnc3c2cnn3-c2ccccc2)nn1)Nc1ccccn1 classified in this test?
**Result** inactive

**Query** How was CC(=O)Nc1nc2c(s1)CCc1c-2cn(S(=O)(=O)c2ccccc2)c1-c1ccccc1 classified in this test?
**Result** inactive

**Query** How was COc1cccc(C(=O)NC(c2ccc(C)cc2)c2cc(Cl)c3cccnc3c2O)c1 (stereo not given) classified in this test?
**Result** inactive

* * *

- Test system: NCI-H322M lung
- measurement notes: NCI-60 one-dose screen, 48 h (100 = growth as untreated, 0 = no growth, -100 = all killed)
- condition set: 10 µM unless noted
- Protocol: Growth inhibition of the NCI-H322M human Non-Small Cell Lung tumor cell line is measured as a screen for anti-cancer activity. Cells are grown in 96 well plates and exposed to the test compound for 48 hours. Compounds are tested at a single concentration, which is 10^-5 M for most compounds. The reported endpoint is percent growth (GI% or GIPRCNT), where numbers from 0 - 100% represent growth inhibition, and numbers from -100% - 0 represent cell death. […]
The panel holds about 83,000 compounds, 20% with a hit somewhere; the sample as a whole holds those more often.
Quick rule for you: growth at 60% or higher means T, lower means F.

Study these solved cases before continuing.
Cc1cc2c(c(C)c1Cl)C(=O)/C(=C/c1ccco1)O2 ... T
CN1C(=O)N(C)C2Nn3c(s/c(=C4\C(=O)N(CCc5ccccc5)c5ccccc54)c3=O)=NC21 (stereo unspecified) ... T
CC(C)Cn1c2c(c(=S)[nH]c1=O)CCC2 ... T
C=CCN1C(=O)/C(=c2\sc3n(c2=O)NC2C(N=3)N(CC)C(=O)N2CC)c2ccccc21 (stereo unspecified) ... F
COC(=O)[C@H]1CCCN1C(=O)[C@H]1CCCN1C(=O)[C@H](Cc1c[nH]c2ccccc12)NC(=S)Nc1cc(C(F)(F)F)cc(C(F)(F)F)c1 ... T

**Query** Confirm if growth reported for the compound CC1=C(C(=O)OCC2CCN(C(=O)OC(C)(C)C)CC2)[C@H](c2cccc(C#N)c2)C2=C(CC(C)(C)CC2=O)N1 is 60% or above.
**Result** T

**Query** Confirm if growth reported for the compound O=C1NC(=O)C(=Cc2cn(Cc3cn(Cc4ccc(Cl)cc4Cl)nn3)c3ccccc23)C(=O)N1 is 60% or above.
**Result** T

**Query** Confirm if growth reported for the compound COC(=O)c1c2c(c(C)[n+]([O-])c1C)C(=O)C=C(NCc1ccc(F)c(F)c1)C2=O is 60% or above.
**Result** F

**Query** Confirm if growth reported for the compound O=C1OC(c2ccccc2)(c2ccccc2)c2ccsc21 is 60% or above.
**Result** T

**Query** Confirm if growth reported for the compound CNCCNc1nc2ccccc2c2c(=O)c3cccc(OC)c3sc12 is 60% or above.
**Result** F

**Query** Confirm if growth reported for the compound COc1cc2c(cc1OC)C(=O)C(CC1CCN(C(=O)Nc3ccc(C)cc3)CC1)C2 (stereo unspecified) is 60% or above.
**Result** T
